# ASSAY_OVERVIEW: binders of probe aFSTL3 on microarray, primary screen, stem cell growth factor project, biochemical, small-molecule microarray, fluorescence 635/667 (AID 1064);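 also: measures binding of the biotinylated anti-FSTL3 antibody to printed compounds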
# EXPERIMENTAL_SETUP: higher = more signal
OBSERVABLE: composite z-score
The answer should be a number; do not append a unit.

Take a look at these entries with their results.
INSERT INTO results (molecule, result_number) VALUES
  ('CCOC(=O)[C@H](CC(C)C)NC(=O)CCC1CC(OC(=O)NCCc2ccc(F)cc2)CC2(CCCC(COC(=O)NCc3cccc(C(F)(F)F)c3)O2)O1 (some centres undefined)', -0.17),
  ('COC(=O)[C@H](C)NC(=O)CCC1CC(OC(=O)NCc2cccc3ccccc23)CC2(CCCC(COC(=O)NCCc3ccccc3OC)O2)O1 (some centres undefined)', -0.629),
  ('CC1(C)O[C@H]2OC([C@H](O)CON3C(=O)c4ccccc4C3=O)[C@H](O)[C@H]2O1 (some centres undefined)', -0.437);

Entry `CCN1C(=O)[C@H]2[C@H]3[C@H](O)[C@H](O)CC(=NO[C@@H]4O[C@H](CO)[C@@H](O)[C@H](O)[C@H]4O)[C@H]3CC[C@H]2C1=O` : reported composite z-score = ? -0.396

---

# ASSAY_OVERVIEW: modulators of S6 phosphorylation in cells, primary screen, cell-based, A549, cytoblot, luminescence, serum-stimulated (AID 1158);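 also: serum-stimulated A549 lung adenocarcinoma cells; signal is phosphorylated S6 detected by cytoblot immunostaining with HRP secondary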
# EXPERIMENTAL_SETUP: A549 phospho-S6 cytoblot, 5 h, higher = more signal
So basically: z-score at -0.6 or higher? That is class 1. Lower than -0.6? That is class 0.

For orientation, consider the following solved cases.
INSERT INTO measurements (compound, discrete_label) VALUES
  ('C#CCCCON=C1C[C@@H](O)[C@@H](O)[C@@H]2[C@@H]3C(=O)N(C[C@@H]4CCCO4)C(=O)[C@@H]3CC[C@H]12', 'class 1'),
  ('C[C@H]1CC[C@H]2C(=O)O[C@H](CO)CN2[C@@H]1c1ccc(Br)cc1', 'class 1'),
  ('COc1ccc(COC(=O)NN=C2C[C@@H](O)[C@@H](O)[C@@H]3[C@@H]4C(=O)N(C(C)(C)C)C(=O)[C@@H]4CC[C@@H]23)cc1', 'class 1'),
  ('CCc1cc2c(nc1CC)CCN(CCC(C)=NOC(C)CN1CCCCc3nc(C)c(C)cc31)C2 (stereo not drawn)', 'class 1'),
  ('CON=C(C)CCN1CCCc2nc(C)c(C)cc21', 'class 0'),
  ('CCOC(=O)CCN1C(=O)[C@H]2[C@H]3[C@H](O)[C@H](O)CC(=NNC(=O)OCc4ccc(OC)cc4)[C@H]3CC[C@H]2C1=O', 'class 1');

Consider now this further compound.
# bool: z-score of CCOC(=O)[C@H](CC(C)C)NC(=O)CCC1CC(OC(=O)NCc2ccc3c(c2)OCO3)CC2(CCCC(COC(=O)NCCc3ccc(Cl)cc3)O2)O1 (stereo partly drawn) >= -0.6 class 0

---

# Test system: Neuregulin-1 EGF-like domain
# ASSAY_OVERVIEW: binders of neuregulin-1 EGF-like domain, primary screen, biochemical, small-molecule microarray, 635 nm fluorescence (AID 1081);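 also: binding of the protein to compounds printed on small-molecule microarray slides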
# EXPERIMENTAL_SETUP: small-molecule microarray binding, higher = more signal
So basically: composite z-score at 0.6 or higher? That is True. Lower than 0.6? That is False.

INSERT INTO assay_data (compound, discrete_label) VALUES
  ('O=C1[C@H]2[C@H]3[C@H](O)[C@H](O)CC(=NOC[C@@H](O)COCc4ccco4)[C@@H]3CC[C@H]2C(=O)N1c1cccc(Oc2ccccc2)c1', 'False'),
  ('CON=C(C)CCN1CCc2nc(-c3ccccc3)c(-c3ccccc3)cc2C1', 'False'),
  ('COC(=O)[C@H](C)NC(=O)CCC1CC(OC(=O)NCc2cccc3ccccc23)CC2(CCCC(COC(=O)NCc3ccccc3)O2)O1 (some centres not stated)', 'True'),
  ('CC(CCN1CCc2nc(-c3ccccc3)c(-c3ccccc3)cc2C1)=NO[C@H](C)c1cn([C@H](CO)Cc2ccccc2)nn1', 'False'),
  ('CCOC(=O)[C@H](CC(C)C)NC(=O)CCC1CC(OC(=O)NCc2ccc3c(c2)OCO3)CC2(CCCC(COC(=O)NCCOc3ccccc3)O2)O1 (some centres not stated)', 'True'),
  ('Cc1ccc2[nH]c3nc(CCCn4ccnc4-c4ccccc4)nnc3c2c1', 'True');

Consider now this further compound.
# bool: composite z-score of `COC(=O)CC=C[C@@H](C)[C@@H](C=NOC[C@@H](O)COCc1ccco1)OC` >= 0.6 False

---

# ASSAY_OVERVIEW: binders of probe aHhip on microarray, primary screen, stem cell growth factor project, biochemical, small-molecule microarray, fluorescence 635/667 (AID 1087);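 also: score merges spot fluorescence at 667nm with spot signal to noise ratio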
# EXPERIMENTAL_SETUP: higher = more signal
Quick list: composite z-score per entry.
The answer should be a number; do not append a unit.

INSERT INTO measurements (compound, result_number) VALUES
  ('C[C@H]1CC[C@@H](C(=O)O)N[C@@H]1c1ccc(C#Cc2ccccc2)cc1', 0.176),
  ('CC(C)=CCCC(C)=CCON=C1C[C@@H](O)[C@@H](O)[C@@H]2[C@@H]3C(=O)N([C@@H](C)c4ccccc4)C(=O)[C@@H]3CC[C@@H]12', -0.249),
  ('COc1ccc(O[C@H]2C=C[C@@H](c3ccccc3)O[C@@H]2COC(=O)CCC(C)=NOC[C@@H](O)COCc2ccco2)cc1', -0.115),
  ('COC(=O)[C@H](CCSC)NC(=O)CC=C[C@@H](C)CO', 0.484);

Entry `COc1ccc(COC(=O)NN=C2C[C@@H](O)[C@@H](O)[C@@H]3[C@@H]4C(=O)N(Cc5ccccc5)C(=O)[C@@H]4CC[C@@H]23)cc1` : reported composite z-score = ? 0.0183

Entry `CC(C)(C)N1C(=O)[C@H]2[C@@H]3C(=CC[C@H]2C1=O)C(=O)[C@H]1O[C@H]1[C@H]3O` : reported composite z-score = ? 0.0024

Entry CCOC(=O)[C@H](CC(C)C)NC(=O)CCC1CC(OC(=O)NCc2ccc3c(c2)OCO3)CC2(CCCC(COC(=O)NCCC(C)C)O2)O1 (some centres not stated) : reported composite z-score = ? -0.291

---

# Tested on: XIP peptide (Xip251-270)
# ASSAY_OVERVIEW: small-molecule binders of XIP peptide, primary screen, biochemical, small-molecule microarray, fluorescence 635/667 nm, 0.5 µg/mL protein (AID 1183)
# EXPERIMENTAL_SETUP: small-molecule microarray binding, fluorescence 635 nm; higher = more signal
OBSERVABLE: composite z-score
The answer should be a number; do not append a unit.

Take a look at these entries with their results.
INSERT INTO assay_data (compound, result_number) VALUES
  ('C[C@@H]1CC[C@H]2C(=O)OC(CN3C(=O)c4ccccc4C3=O)CN2[C@H]1c1ccc(Br)cc1 (stereo partly specified)', 0.338),
  ('CC(CCN1CCCCc2nc(C)c(C)cc21)=NOC[C@@H](O)[C@H]1O[C@@H]2OC(C)(C)O[C@@H]2[C@H]1O', 0.698),
  ('COc1ccc(O[C@H]2C=C[C@@H](c3ccccc3)O[C@@H]2CON=C(C)CCN2CCCc3nc(C)c(C)cc32)cc1', 0.693),
  ('CC(C)(C)N1C(=O)[C@H]2[C@H]3[C@H](O)[C@H](O)CC(=NOC[C@@H](O)COCc4ccco4)[C@H]3CC[C@H]2C1=O', 0.72),
  ('C[C@@H]1CC[C@H]2C(=O)O[C@@H](COc3ccc(C(C)(C)C)cc3)CN2[C@H]1c1ccc(Br)cc1', 0.619),
  ('CCOC(=O)[C@H](CC(C)C)NC(=O)CCC1CC(OC(=O)NCc2ccc3c(c2)OCO3)CC2(CCCC(COC(=O)NCCc3ccccc3OC)O2)O1 (stereo partly specified)', 0.622);

What composite z-score appears in the records for this compound with XIP peptide (Xip251-270)? `CO[C@@H]1COC(=O)[C@H](COCc2ccccc2)NC(=O)CC=C[C@@H](C)[C@H](OC)COC(=O)[C@@H](C)NC(=O)CC=C[C@H]1C` 0.261

What composite z-score appears in the records for this compound with XIP peptide (Xip251-270)? `CC(C)(C)N1C(=O)[C@H]2[C@H]3[C@H](O)[C@H](O)CC(=NNC(=O)OCc4ccccc4)[C@@H]3CC[C@H]2C1=O` 0.195

What composite z-score appears in the records for this compound with XIP peptide (Xip251-270)? `O=C1C=C[C@@H](O)[C@@H]2[C@@H]3C(=O)N(Cc4ccc5c(c4)OCO5)C(=O)[C@@H]3CC[C@@H]12` 0.228

What composite z-score appears in the records for this compound with XIP peptide (Xip251-270)? `CCOC(=O)CCN1C(=O)[C@H]2[C@H]3[C@H](O)[C@H](O)CC(=O)[C@@H]3CC[C@H]2C1=O` 0.61

What composite z-score appears in the records for this compound with XIP peptide (Xip251-270)? `CO[C@H]1COC(=O)CCC[C@H](C)[C@@H](OC)COC(=O)CC=C[C@@H]1C` 0.003

What composite z-score appears in the records for this compound with XIP peptide (Xip251-270)? `CC(CCN1CCc2nc(-c3ccccc3)c(-c3ccccc3)cc2C1)=NO[C@H](C)c1cn([C@H](CO)Cc2ccccc2)nn1` 0.529

What composite z-score appears in the records for this compound with XIP peptide (Xip251-270)? CCc1cc2c(nc1CC)CCN(CCC(C)=NOC(C)CN1CCCCc3nc(C)c(C)cc31)C2 (stereo unspecified) 0.61

What composite z-score appears in the records for this compound with XIP peptide (Xip251-270)? `CON=C(C)CCN1CCCc2nc(C)c(C)cc21` 0.428

What composite z-score appears in the records for this compound with XIP peptide (Xip251-270)? `COc1ccc(O[C@H]2C=C[C@@H](c3ccccc3)O[C@@H]2CON=C2c3cc(OC)ccc3O[C@H](c3cccc(OC)c3)[C@H]2O)cc1` -0.338

What composite z-score appears in the records for this compound with XIP peptide (Xip251-270)? `CC(=O)OC[C@H]1O[C@H](CCON=C(C)CCN2CCCc3nc(C)c(C)cc32)C=C[C@@H]1OC(C)=O` 0.651

// data source = PubChem BioAssay
